- System: HL-1
- protocol_text: relative cell viability (CellTiter-Glo) vs DMSO control (% of DMSO control); higher = more viable cells
- run_parameters: oxygen condition: hypoxia 48 h (1% O2) + reoxygenation 24 h; 40 nM
Where a name gives a salt, the structure may show the parent alone.
outcome_measure: relative cell viability
Could you respond with only the numeric value?

relative cell viability on HL-1 for CC(C)NCC(O)COc1ccc(COCCOC(C)C)cc1 (centres undefined) [Bisoprolol] is 93.2

relative cell viability on HL-1 for OCC(CO)N[C@H]1C[C@](O)(CO)[C@@H](O)[C@H](O)[C@H]1O [Voglibose] is 109

relative cell viability on HL-1 for C[C@H](N[C@@H](CCc1ccccc1)C(=O)O)C(=O)N1CCC[C@H]1C(=O)O [Enalaprilat dihydrate] is 104

relative cell viability on HL-1 for COc1ccc2[nH]c([S@@+]([O-])Cc3ncc(C)c(OC)c3C)nc2c1 [Esomeprazole magnesium] is 107

relative cell viability on HL-1 for CC(CN(C)C)CN1c2ccccc2CCc2ccccc21 (centres undefined) [Trimipramine Maleate] is 103

relative cell viability on HL-1 for CCOC(=O)[C@H](CCc1ccccc1)N[C@@H](C)C(=O)N1[C@H](C(=O)O)C[C@@H]2CCC[C@@H]21 [Ramipril] is 100

relative cell viability on HL-1 for CCCS(=O)(=O)Nc1ccc(F)c(C(=O)c2c[nH]c3ncc(-c4ccc(Cl)cc4)cc23)c1F [Vemurafenib] is 102

relative cell viability on HL-1 for COC(=O)CCc1ccc(OCC(O)CNC(C)C)cc1 (centres undefined) [Esmolol HCl] is 103

relative cell viability on HL-1 for Cc1c(OCC(F)(F)F)ccnc1C[S@@+]([O-])c1nc2ccccc2[nH]1 [Dexlansoprazole] is 105

* * *

- Tested on: HL-1
- protocol_text: relative cell viability (CellTiter-Glo) vs DMSO control (% of DMSO control); higher = more viable cells
- run_parameters: oxygen condition: normoxia 72 h; 1000 nM
Counter-ions that a name gives are not always drawn.
# if measured relative cell viability < 100: Criterion met  # else: Criterion not met

relative cell viability under 100? Item: O=NO [Sodium nitrite]
Criterion not met

relative cell viability under 100? Item: N=C(N)NC(=O)c1nc(Cl)c(N)nc1N [Amiloride hydrochloride]
Criterion met

relative cell viability under 100? Item: CN1CCC(=C2c3ccccc3CC(=O)c3sccc32)CC1 [Ketotifen fumarate]
Criterion not met

relative cell viability under 100? Item: Cc1onc(-c2ccccc2)c1C(=O)N[C@@H]1C(=O)N2[C@@H]1SC(C)(C)[C@@H]2C(=O)O [Oxacillin sodium monohydrate]
Criterion not met

relative cell viability under 100? Item: `CNC(=O)c1ccc(N2C(=S)N(c3ccc(C#N)c(C(F)(F)F)c3)C(=O)C2(C)C)cc1F`
Criterion not met

relative cell viability under 100? Item: CCCN[C@H]1CCc2nc(N)sc2C1 [Pramipexole]
Criterion not met

relative cell viability under 100? Item: `CC(C)(Oc1ccc(Cl)cc1)C(=O)O`
Criterion not met

relative cell viability under 100? Item: NCCS [Cysteamine HCl]
Criterion not met

relative cell viability under 100? Item: CS(=O)(=O)CCNCc1ccc(-c2ccc3ncnc(Nc4ccc(OCc5cccc(F)c5)c(Cl)c4)c3c2)o1 [Lapatinib Ditosylate]
Criterion not met

relative cell viability under 100? Item: `CCCSc1nc(N[C@@H]2C[C@H]2c2ccc(F)c(F)c2)c2nnn([C@@H]3C[C@H](OCCO)[C@@H](O)[C@H]3O)c2n1`
Criterion not met

relative cell viability under 100? Item: `COc1ccc2cc1Oc1ccc(cc1)C[C@H]1c3c(cc4c(c3Oc3cc5c(cc3OC)CCN(C)[C@@H]5C2)OCO4)CCN1C`
Criterion met

relative cell viability under 100? Item: `CN(C)c1nc(N(C)C)nc(N(C)C)n1`
Criterion not met

relative cell viability under 100? Item: `Cc1ccc(C(=O)Nc2ccc(CN3CCN(C)CC3)c(C(F)(F)F)c2)cc1C#Cc1cnc2cccnn12`
Criterion not met

relative cell viability under 100? Item: `CCN1CCN(c2cc(-c3ccc(F)cc3)c3c(n2)CCCCCC3)CC1`
Criterion met

* * *

- Test system: HL-1
- protocol_text: relative cell viability (CellTiter-Glo) vs DMSO control (% of DMSO control); higher = more viable cells
- run_parameters: oxygen condition: hypoxia 48 h (1% O2) + reoxygenation 24 h; 200 nM
Where a name gives a salt, the structure may show the parent alone.
outcome_measure: relative cell viability
Could you respond with only the numeric value?

What the record says about `CS(=O)(=O)c1ccc([C@@H](O)[C@@H](CO)NC(=O)C(Cl)Cl)cc1` : relative cell viability is 104

What the record says about CCN(Cc1ccncc1)C(=O)C(CO)c1ccccc1 (stereo not drawn) [Tropicamide] : relative cell viability is 99.4

What the record says about `CO[C@H]1O[C@@H]2O[C@@]3(C)CC[C@H]4[C@H](C)CC[C@@H]([C@H]1C)[C@@]24OO3` : relative cell viability is 103

What the record says about CCOC(=O)c1c(C)n(C)c2ccc(O)cc12 [Mecarbinate] : relative cell viability is 102

What the record says about COC(=O)C1=C(C)NC(C)=C(C(=O)OC(C)C)C1c1cccc2nonc12 (stereo not drawn) : relative cell viability is 111

What the record says about CCOC(=O)C1=C(C)NC(C)=C(C(=O)OC)C1c1cccc(Cl)c1Cl (stereo not drawn) : relative cell viability is 105

What the record says about `CC(=O)[C@H]1CC[C@H]2[C@@H]3CC=C4C[C@@H](O)CC[C@]4(C)[C@H]3CC[C@]12C` : relative cell viability is 103

What the record says about CC(CCc1ccc(O)cc1)NCC(O)c1ccc(O)cc1 (stereo not drawn) [Ractopamine HCl] : relative cell viability is 100

What the record says about N[C@@H]1CN(c2c(F)cc3c(=O)c(C(=O)O)cn([C@@H]4C[C@@H]4F)c3c2Cl)CC12CC2 [Sitafloxacin hydrate] : relative cell viability is 98.6

What the record says about CCOC(=O)C1=C(C)NC(C)=C(C(=O)OC)C1c1cccc([N+](=O)[O-])c1 (stereo not drawn) : relative cell viability is 106

What the record says about Cc1nc2n(c(=O)c1CCN1CCC(c3noc4cc(F)ccc34)CC1)CCCC2O (stereo not drawn) : relative cell viability is 107

What the record says about Cc1ncc([N+](=O)[O-])n1CC(O)CCl (stereo not drawn) : relative cell viability is 109

What the record says about CCCC(=O)Nc1ccc(OCC(O)CNC(C)C)c(C(C)=O)c1 (stereo not drawn) [Acebutolol HCl] : relative cell viability is 108

What the record says about `CN(C)/N=N/c1[nH]cnc1C(N)=O` : relative cell viability is 107

What the record says about `C[N+](C)(C)C[C@H](O)CC(=O)[O-]` : relative cell viability is 104

What the record says about CN[C@H](CC(C)C)C(=O)N[C@H]1C(=O)N[C@@H](CC(N)=O)C(=O)N[C@H]2C(=O)N[C@H]3C(=O)N[C@H](C(=O)N[C@H](C(=O)O)c4cc(O)cc(O)c4-c4cc3ccc4O)[C@H](O)c3ccc(c(Cl)c3)Oc3cc2cc(c3O[C@@H]2O[C@H](CO)[C@@H](O)[C@H](O)[C@H]2O[C@H]2C[C@](C)(N)[C@H](O)[C@H](C)O2)Oc2ccc(cc2Cl)[C@H]1O [Vancomycin HCl] : relative cell viability is 92.7

What the record says about C[C@@H]1CCN(C(=O)CC#N)C[C@@H]1N(C)c1ncnc2[nH]ccc12 [Tofacitinib citrate] : relative cell viability is 104

What the record says about CNCC[C@@H](Oc1ccccc1C)c1ccccc1 [Atomoxetine HCl] : relative cell viability is 104

What the record says about Cc1ccccc1C(=O)Nc1ccc(C(=O)N2CCCC(O)c3cc(Cl)ccc32)c(C)c1 (stereo not drawn) : relative cell viability is 104

What the record says about Cc1ccc(N(CC2=NCCN2)c2cccc(O)c2)cc1 [Phentolamine mesilate] : relative cell viability is 94.7

What the record says about COC(=O)C1=C(C)NC(C)=C(C(=O)OC2CCCN(Cc3ccccc3)C2)C1c1cccc([N+](=O)[O-])c1 (stereo not drawn) [Benidipine hydrochloride] : relative cell viability is 113

What the record says about COCCCC/C(=N\OCCN)c1ccc(C(F)(F)F)cc1 [Fluvoxamine maleate] : relative cell viability is 109

What the record says about `CCOC(=O)C1=C(C)NC(C)=C(C(=O)OCC)C1c1ccccc1/C=C/C(=O)OC(C)(C)C` : relative cell viability is 102

What the record says about Nc1cccc2c1C(=O)N(C1CCC(=O)NC1=O)C2=O (stereo not drawn) [Pomalidomide] : relative cell viability is 97.5

What the record says about CC(C)NCC(O)COc1ccc(CCOCC2CC2)cc1 (stereo not drawn) : relative cell viability is 98.5

What the record says about `O=C(O)Cc1cc(I)c(Oc2ccc(O)c(I)c2)c(I)c1` : relative cell viability is 99.5

What the record says about CCOc1ccc2ccccc2c1C(=O)N[C@@H]1C(=O)N2[C@@H]1SC(C)(C)[C@@H]2C(=O)O [nafcillin sodium monohydrate] : relative cell viability is 104

What the record says about CN(C)CCCN1c2ccccc2Sc2ccc(C(F)(F)F)cc21 [Triflupromazine HCl] : relative cell viability is 105

What the record says about CCOc1ccc2nc(S(N)(=O)=O)sc2c1 [Ethoxzolamide] : relative cell viability is 101

What the record says about `COc1cc2/c(=N/c3ccc(Br)cc3F)nc[nH]c2cc1OCC1CCN(C)CC1` : relative cell viability is 115

What the record says about CCN(CC)CCNC(C(=O)OCCC(C)C)c1ccccc1 (stereo not drawn) [Camylofin Chlorhydrate] : relative cell viability is 103

What the record says about NS(=O)(=O)c1cc(C(=O)O)c(NCc2ccco2)cc1Cl [Furosemide] : relative cell viability is 105

What the record says about `CC/C(=C(/CC)c1ccc(O)cc1)c1ccc(O)cc1` : relative cell viability is 106
